Source: patent US4188321A

ASSAY NAME: solubility in buffer solution
Assay type: physicochemical
PROTOCOL CONDITIONS: buffer, pH 7.5, aqueous buffer
Procedure: Said solubilities are given in g. of rifamycin % ml. of buffer solution (pH=7,5 and t=22° C.). DA means desacetyl.
READOUT NAME: solubility (µg/mL)

INSERT INTO assay_data (compound, readout_name, recorded_result) VALUES
  ('CCN(CC)Cc1c2c(O)c3c(O)c(C)c4c(c3c1O)C(=O)C(C)(OC=CC(OC)C(C)C(OC(C)=O)C(C)C(O)C(C)C(O)C(C)C=CC=C(C)C(=O)N2)O4 (stereo not drawn) [3-diethylaminomethyl-rifamycin SV, reference compound]', 'solubility', 420),
  ('COC1C=COC2(C)Oc3c(C)c(O)c4c(O)c(c(C=O)c(O)c4c3C2=O)NC(=O)C(C)=CC=CC(C)C(O)C(C)C(O)C(C)C(O)C1C (stereo not drawn)', 'solubility', 34300),
  ('CON=Cc1c2c(O)c3c(O)c(C)c4c(c3c1O)C(=O)C(C)(OC=CC(OC)C(C)C(O)C(C)C(O)C(C)C(O)C(C)C=CC=C(C)C(=O)N2)O4 (stereo not drawn)', 'solubility', 340),
  ('CCN(CC)Cc1c2c(O)c3c(O)c(C)c4c(c3c1O)C(=O)C(C)(OC=CC(OC)C(C)C(O)C(C)C(O)C(C)C(O)C(C)C=CC=C(C)C(=O)N2)O4 (stereo not drawn)', 'solubility', 1260),
  ('COC1C=COC2(C)Oc3c(C)c(O)c4c(O)c(c(CN5CCCC5)c(O)c4c3C2=O)NC(=O)C(C)=CC=CC(C)C(O)C(C)C(O)C(C)C(O)C1C (stereo not drawn)', 'solubility', 2800),
  ('COC1C=COC2(C)Oc3c(C)c(O)c4c(O)c(c(CN5CCCC5)c(O)c4c3C2=O)NC(=O)C(C)=CC=CC(C)C(O)C(C)C(O)C(C)C(OC(C)=O)C1C (stereo not drawn) [3-pyrrolidino-methyl-rifamycin SV, reference compound]', 'solubility', 60),
  ('COC1C=COC2(C)Oc3c(C)c(O)c4c(O)c(c(C=O)c(O)c4c3C2=O)NC(=O)C(C)=CC=CC(C)C(O)C(C)C(O)C(C)C(OC(C)=O)C1C (stereo not drawn) [3-formyl-rifamycin SV, reference compound]', 'solubility', 6400),
  ('CON=Cc1c2c(O)c3c(O)c(C)c4c(c3c1O)C(=O)C(C)(OC=CC(OC)C(C)C(OC(C)=O)C(C)C(O)C(C)C(O)C(C)C=CC=C(C)C(=O)N2)O4 (stereo not drawn) [3-methoximinomethyl-rifamycin SV, reference compound]', 'solubility', 150),
  ('COC1C=COC2(C)Oc3c(C)c(O)c4c(O)c(c(C=NN5CCN(C)CC5)c(O)c4c3C2=O)NC(=O)C(C)=CC=CC(C)C(O)C(C)C(O)C(C)C(O)C1C (stereo not drawn)', 'solubility', 7600);
